test: Inhibition of bacterial NDM1 expressed in Escherichia coli BL21(DE3) using cefazolin as substrate by spectrometric method; parameters: species or system Bacteria
Reported IC50 values are given for each entry in this list.

Would you please look over these solved cases?
O=C(O)c1ccc(N2C(=O)/C(=C/c3ccc([N+](=O)[O-])cc3[N+](=O)[O-])SC2=S)cc1; 6.7 µM
O=C(O)c1ccc(N2C(=O)/C(=C/c3ccc(Cl)cc3)SC2=S)cc1; 12.2 µM
O=C(O)c1ccc(N2C(=O)/C(=C/c3cccs3)SC2=S)cc1; 14.3 µM
O=C(O)c1ccc(N2C(=O)/C(=C/c3ccccc3[N+](=O)[O-])SC2=S)cc1; 1.31 µM
COc1ccc(/C=C2\SC(=S)N(c3ccc(C(=O)O)cc3)C2=O)cc1; 12 µM
O=C(O)c1ccc(N2C(=O)/C(=C/c3ccc(Cl)cc3Cl)SC2=S)cc1; 10.6 µM
COc1ccc(/C=C2\SC(=S)N(CC(=O)O)C2=O)cc1; 25.1 µM
O=C(O)c1ccc(N2C(=O)/C(=C/c3ccccn3)SC2=S)cc1; 1.13 µM

Input: Please look up its IC50: O=C(O)CN1C(=O)/C(=C/c2ccc(Cl)cc2Cl)SC1=S
Output: 21.5 µM

Input: Which IC50 reading was recorded for the molecule O=C(O)c1ccc(N2C(=O)/C(=C/c3ccc(C(F)(F)F)cc3)SC2=S)cc1 ?
Output: 10.6 µM

====

system: Bacteria; experiment: Inhibition of bacterial VIM2 expressed in Escherichia coli DH10B assessed as potentiation of cefazolin-induced antibacterial activity by measuring cefazolin MIC at 32 ug/ml after 16 hrs by broth micro-dilution method (reference value: 512 ug/ml)
reported endpoint: MIC (µg/mL)
Field: numeric (µg/mL). Do not append units.

O=C(O)CN1C(=O)/C(=C/c2cccs2)SC1=S; 512

Input: What MIC appears in the records for this molecule with Bacteria? O=C(O)CN1C(=O)/C(=C/c2ccco2)SC1=S
Output: 512

Input: Param readout = MIC; param system = Bacteria; param query = O=C(O)CN1C(=O)/C(=C/c2ccc3ccccc3c2)SC1=S ; response: value
Output: 512

Input: Observed MIC on Bacteria for O=C(O)c1ccc(N2C(=O)/C(=C/c3ccc(Cl)cc3Cl)SC2=S)cc1 , please.
Output: 128

Input: Query MIC on Bacteria for O=C(O)c1ccc(N2C(=O)/C(=C/c3ccc(F)cc3)SC2=S)cc1
Output: 256

Input: // lookup MIC | system=Bacteria | key= O=C(O)CN1C(=O)/C(=C/c2ccccn2)SC1=S
Output: 512

Input: Please tell me: MIC of O=C(O)c1ccc(N2C(=O)/C(=C/c3ccc(C(F)(F)F)cc3)SC2=S)cc1 , system Bacteria?
Output: 128

Input: Given the entry COc1ccc(/C=C2\SC(=S)N(CC(=O)O)C2=O)cc1 , what MIC was observed with Bacteria?
Output: 512

====

experiment: Cytotoxicity against mouse L929 cells assessed as cell viability up to 200 uM after 48 hrs by CCK8 assay relative to control; format: cell-based; conditions: read-out: Activity
reported endpoint: viability at 48 h (%)
Write the value in % as a bare number.

O=C(O)CN1C(=O)/C(=C/c2ccc([N+](=O)[O-])cc2[N+](=O)[O-])SC1=S; 80
O=C(O)CN1C(=O)/C(=C/c2ccccc2[N+](=O)[O-])SC1=S; 80

Okay, next one:
Input: So what's the measured viability at 48 h for this one? O=C(O)c1ccc(N2C(=O)/C(=C/c3ccccc3[N+](=O)[O-])SC2=S)cc1
Output: 80
